Reference source for all entries: patent US20210047412A1

subjectOfTest: canine PD-1 (canine)
assayRemarks: ELISA, affinity for canine PD-1 (Table 2)
pKd: −log10 of the molar value.
readout: pKd

Consider the worked cases shown below.
# binder, pKd
measured = [
    ("NAN4 (5A1) (VHH) VHH: QVQLQASGGGLVQPGGSLTLSCAASGSIDSILAMGWYRQGPGKQREFVASISWSGDITYYADSAKGRFTISRDNAKNTVYLQMNSLKPEDTAVYYCNAGPDMQISGPTDDYDYWGQGTQVG", 8.15),
    ("NAN10 (4B4) (VHH) VHH: QVQLQASGGGLVQGGESLRLSCAASGRTVAEYTIGWYRQAPGKEREFVAGPSWHARGTSYLDSVKGRFTISRDNTKDTVYLQMNTLKPEDTAVYYCNADVNTDYSEYVEYWGQGTQVG", 8.64),
]

[a] NAN15 (4B2) (VHH) VHH: QVQLQASGGGLVQPGEHLLLSCAASGFAFGIYTMGWYRQAPGKEREKVASISRTSDSWNYADSVKGRFTISRENAKNTLYLQMNSLKPEDTALYFCAKSRSAWNTDDIEYWGQGTQVG
[b] NAN7/8 (5A5) (VHH) VHH: QVQLQASGGGLVEPGGSLRLSCAASGAIFRIAAMGWYRQAPGKERELVATITRGGSTNYADSVKGRFTISRDNAKNTAYLQMDSLKAEDTGVYYCNAGLWATTSANYWGQGTQVG
input: Smaller pKd value? Options are a and b Select an item and report its label.
output: b
(b: 8.30, a: 8.60)
